- Target Or System: Endothelin-1 receptor (Homo sapiens)
- Sequence (P25101 whole entry): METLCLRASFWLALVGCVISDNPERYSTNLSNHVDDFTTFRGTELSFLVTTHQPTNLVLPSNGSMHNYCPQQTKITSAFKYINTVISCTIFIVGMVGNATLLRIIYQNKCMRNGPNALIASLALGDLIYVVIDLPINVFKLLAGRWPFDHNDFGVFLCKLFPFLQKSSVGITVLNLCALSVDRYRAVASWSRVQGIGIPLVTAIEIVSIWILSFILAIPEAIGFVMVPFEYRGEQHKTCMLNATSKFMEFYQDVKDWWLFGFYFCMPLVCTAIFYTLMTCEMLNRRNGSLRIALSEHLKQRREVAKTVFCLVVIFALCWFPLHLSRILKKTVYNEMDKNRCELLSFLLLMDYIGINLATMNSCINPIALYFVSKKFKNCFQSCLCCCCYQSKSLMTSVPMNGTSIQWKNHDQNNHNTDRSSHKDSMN
Assay Readout: Ki

Summary for this molecule, `O=C(Cc1ccccc1)NC1CCN(CCCN2C(=O)COc3ccccc32)CC1` : Ki is ≥ 1000 nM

All figures here come from ChEMBL document CHEMBL1240489.
